Cited source for all entries: ChEMBL document CHEMBL1201862

molecular target: Replicative DNA helicase DnaB (Mycobacterium tuberculosis, UniProt P9WMR3); assay: DnaB intein splicing inhibitors, dose response, biochemical, cell-free fluorescence (AID 449749); type: functional
Sequence (P9WMR3 1-399, added parts left off): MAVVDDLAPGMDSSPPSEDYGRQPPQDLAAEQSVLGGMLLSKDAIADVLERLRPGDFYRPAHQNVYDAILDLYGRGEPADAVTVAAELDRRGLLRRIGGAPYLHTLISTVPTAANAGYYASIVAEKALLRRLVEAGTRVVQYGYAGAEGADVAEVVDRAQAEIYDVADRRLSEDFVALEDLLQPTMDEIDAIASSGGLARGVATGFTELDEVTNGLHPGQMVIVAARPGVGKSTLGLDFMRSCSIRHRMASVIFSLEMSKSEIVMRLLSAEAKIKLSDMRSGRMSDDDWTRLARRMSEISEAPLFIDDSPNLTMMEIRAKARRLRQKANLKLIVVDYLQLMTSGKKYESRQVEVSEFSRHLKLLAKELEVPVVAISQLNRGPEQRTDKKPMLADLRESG
Activity calls are given as the source filed them. Cut-off read from the data, not from the text of the source: actives have a measured AC50 and inactives only a lower limit.
Your reply should match one of these outcome classes. y (active), n (inactive)

Would you please look over these solved cases?
O=C1c2ccccc2C(=O)c2c1ncn2-c1ccccc1 : y
O=C1c2ccccc2C(=O)C12OC2c1ccc(Cl)cc1 (stereo unspecified) : y
CC1CCCN(C2=C(Cl)C(=O)N(c3cccc(Cl)c3)C2=O)C1 (stereo unspecified) : n
CS/C(=C/[N+](=O)[O-])Nc1cccc2c1C(C)CC2(C)C (stereo unspecified) : y
COc1ccc(C(C[N+](=O)[O-])c2c(C)[nH]n(-c3ccccc3)c2=O)cc1 (stereo unspecified) : y

Shift focus to the following entry.
*Q* Identify the outcome logged in this assay for the molecule shown: Cn1nc(C(C)(C)C)cc1C(=O)Sc1cccc(Br)c1
*A* y
